TARGET_OR_TEST_SYSTEM: Leucine aminopeptidase (Plasmodium falciparum 3D7, UniProt Q8IL11)
Sequence (Q8IL11 whole entry): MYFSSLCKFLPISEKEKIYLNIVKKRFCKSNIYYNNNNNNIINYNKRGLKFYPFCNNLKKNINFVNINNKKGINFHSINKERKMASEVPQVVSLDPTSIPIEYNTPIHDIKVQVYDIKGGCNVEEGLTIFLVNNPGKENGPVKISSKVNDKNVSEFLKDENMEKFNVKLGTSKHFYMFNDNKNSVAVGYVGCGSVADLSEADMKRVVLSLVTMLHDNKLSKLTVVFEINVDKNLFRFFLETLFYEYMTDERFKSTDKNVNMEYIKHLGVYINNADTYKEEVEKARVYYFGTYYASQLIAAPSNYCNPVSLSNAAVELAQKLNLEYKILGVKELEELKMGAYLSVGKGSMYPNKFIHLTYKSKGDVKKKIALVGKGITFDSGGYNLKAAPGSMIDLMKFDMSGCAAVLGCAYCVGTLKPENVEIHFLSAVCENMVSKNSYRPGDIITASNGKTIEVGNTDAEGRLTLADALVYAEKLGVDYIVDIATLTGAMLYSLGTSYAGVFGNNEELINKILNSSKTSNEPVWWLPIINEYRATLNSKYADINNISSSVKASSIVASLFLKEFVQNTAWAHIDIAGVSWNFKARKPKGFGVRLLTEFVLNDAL
ASSAY_PROTOCOL: P. falciparum M17LAP inhibitors, primary screen, biochemical, fluorogenic H-Leu-NHMec substrate, 1536-well (AID 1619)
Assay type: functional
Activity calls are given as the source filed them. The rule behind the calls is not given here.
READOUT_TYPE: IC50

COc1ccc(N2C(C)=CC(=Cc3sc4ccccc4[n+]3C)C=C2C)cc1    60.3 µM (active)
O=C(Nc1ccccc1)NC(Cc1ccc(O)cc1)C(=O)O (stereo unspecified)    34.7 µM (active)
COc1ccc2cc(/C=C3\SC(=S)NC3=O)c(N3CCOCC3)nc2c1    1.76 µM (active)
CC1CCc2c(sc(Nc3nc4c(F)cccc4s3)c2C(N)=O)C1 (stereo unspecified)    18 µM (active)
N#Cc1c(/N=C/C2C(=O)NC(=S)NC2=O)sc2c1CCCC2    110 µM (active)

Batch: IC50 for all items listed.
1. CCc1nnc(NS(=O)(=O)c2ccc(NC(=S)NC(=O)/C=C/c3cccs3)cc2)s1
2. COC(=O)c1c(NC(=O)/C=C/C(=O)O)sc(C)c1-c1ccc(C)c(C)c1
3. CCCSc1nnc(NC(=O)c2nc(SC)ncc2Cl)s1
4. O=C(COc1ccccc1)NNC(=S)NC(=O)c1ccccc1
5. Cc1csc(NC(=O)COCC(=O)O)c1-c1nc2ccccc2s1
6. O=C(O)CCc1nnc(SCC(=O)Nc2ccc(Cl)c(C(F)(F)F)c2)nc1O

Solution:
1: 9.13 µM (active); 2: 35.6 µM (active); 3: 34.2 µM (active); 4: 9.22 µM (active); 5: 35.1 µM (active); 6: 2.82 µM (active)
